B1: glmS ribozyme (parent)
chain: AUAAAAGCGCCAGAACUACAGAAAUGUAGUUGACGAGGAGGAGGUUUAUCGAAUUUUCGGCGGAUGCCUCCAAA

- Variants of: B1
- Assay overview: kcat; higher = faster cleavage; RNA array
- Condition summary: with glucosamine-6-phosphate
This sample holds only a part of the variants without activity.
Quantity measured: kcat (s⁻¹)
Expressed in s⁻¹, but write only the number.

Worked examples follow.
[
  {
    "Mutation key": "A64G C67U",
    "Assay value": 0.00193
  },
  {
    "Mutation key": "C68U U69A",
    "Assay value": "1.58e-05"
  },
  {
    "Mutation key": "G29U A53U",
    "Assay value": 0.00357
  },
  {
    "Mutation key": "G38U C67G",
    "Assay value": "1.53e-05"
  },
  {
    "Mutation key": "U30A A39U",
    "Assay value": 0.00467
  },
  {
    "Mutation key": "A14G C68A",
    "Assay value": "9.34e-05"
  }
]

Problem: Give reported kcat value for A12U U57A
Result: 0.00082

Problem: State its kcat for this variant: A6U C70U
Result: 0.000253

Problem: Read off the recorded kcat for G37C C71U
Result: 3.39e-05

Problem: Give recorded kcat. C11A G29U
Result: 3.97e-05

Problem: State, in one line, measured kcat of A6U U56G
Result: 0.000121

Problem: Tell us which kcat value is on record for A14C C16G A53U
Result: 2.08e-05

Problem: Tell me measured kcat for G38U C50G please.
Result: 4.08e-05

Problem: Give the reported kcat for this variant. A48U U56G
Result: 0.000239

Problem: Specify measured kcat for C16G U49G .
Result: 6.89e-05

Problem: Provide measured kcat value, entry: C70G C71A
Result: 5.66e-05

Problem: Give reported kcat value for G9A U54C
Result: 0.000246

Problem: Hello, please tell me recorded kcat for this one: A14U C50U C67G
Result: 3.51e-05

Problem: Recall and state the measured kcat for A14C C68G .
Result: 2.74e-05

Problem: Specify measured kcat for G13U U57C .
Result: 4.31e-05

Problem: Give the reported value of kcat for this record: U45C U57A
Result: 1.9e-05

Problem: Report kcat for G63U C68G
Result: 1.09e-05

Problem: Give recorded kcat. G32C U54G
Result: 9.47e-05

Problem: Item G41A G66U : provide kcat
Result: 8e-05

Problem: Please give measured kcat of the following entry: C11U U30A
Result: 0.00152
